Data origin: patent US20030162824A1

target: hCox-2 (Homo sapiens, UniProt P35354); construct: A 2.0 kb fragment containing the coding region of either human or murine COX-1 or human or murine COX-2; test: Evaluation of COX-2 activity in vitro (recombinant enzyme, PGE2 ELISA)
pIC50: −log10 of the molar value.
recorded-endpoint: pIC50

FC(F)(F)c1cc(-c2ccc(I)cc2)n(-c2ccccc2)n1 < 4.00
O=[N+]([O-])c1ccc(-c2cc(C(F)F)nn2-c2ccc(F)cc2)cc1 4.64
FC(F)(F)c1cc(-c2ccccc2)n(-c2ccc(Cl)cc2)n1 < 3.00
COC(=O)c1ccc(-n2nc(C(F)(F)F)cc2-c2ccc(C)cc2)cc1 < 4.00
O=[N+]([O-])c1ccc(-n2nc(C(F)(F)F)cc2-c2ccc(Cl)cc2)cc1 < 4.00

So for `COc1ccc(-n2nc(C(F)F)cc2-c2ccc(SC)cc2)cc1` , the logged pIC50 turned out to be < 4.00

# pIC50 (molecule: `COc1ccc(-n2nc(C(=O)O)cc2-c2ccc(Cl)cc2)cc1` ) is < 4.00

pIC50 reported for this molecule `COc1ccc(-c2cc(C(F)(F)F)nn2-c2ccc(C)cc2)cc1C` : 4.17

For `FC(F)(F)c1cc(-c2ccc(Cl)cc2)n(-c2ccccc2)n1` the molecule record lists pIC50 as < 3.00

====

Target: hCox-2 (Homo sapiens, UniProt P35354)
Construct: A 2.0 kb fragment containing the coding region of either human or murine COX-1 or human or murine COX-2
Sequence (P35354 18-604): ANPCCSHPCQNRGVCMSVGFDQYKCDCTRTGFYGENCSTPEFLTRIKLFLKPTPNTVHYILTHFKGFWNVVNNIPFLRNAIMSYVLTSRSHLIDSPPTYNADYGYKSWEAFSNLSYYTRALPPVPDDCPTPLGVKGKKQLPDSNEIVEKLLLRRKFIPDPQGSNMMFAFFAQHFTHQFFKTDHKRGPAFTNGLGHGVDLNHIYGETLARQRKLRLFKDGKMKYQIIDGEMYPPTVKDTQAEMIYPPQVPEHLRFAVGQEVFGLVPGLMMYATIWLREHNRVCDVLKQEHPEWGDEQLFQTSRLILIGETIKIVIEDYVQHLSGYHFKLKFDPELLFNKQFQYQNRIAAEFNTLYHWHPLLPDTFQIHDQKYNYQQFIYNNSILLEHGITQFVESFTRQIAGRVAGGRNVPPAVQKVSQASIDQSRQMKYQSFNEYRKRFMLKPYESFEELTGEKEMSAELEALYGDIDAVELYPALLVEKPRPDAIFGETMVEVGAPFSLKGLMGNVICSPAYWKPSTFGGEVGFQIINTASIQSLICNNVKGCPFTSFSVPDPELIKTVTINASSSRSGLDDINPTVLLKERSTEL
Experiment: Evaluation of COX-2 activity in vitro (recombinant enzyme, PGE2 ELISA)
pIC50: −log10 of the molar value.
recorded-endpoint: pIC50

FC(F)(F)c1cc(-c2cccc(Br)c2)n(-c2ccccc2)n1 < 4.00
COC(=O)c1cc(-c2ccc(Cl)cc2)n(-c2ccc(OC)cc2)n1 < 4.00

# input for lookup
// recorded pIC50 for `COc1ccc(-n2nc(C(=O)Nc3ccc(N=[N+]=[N-])cc3)cc2-c2ccc(Cl)cc2)cc1` : ≤ 3.00

====

target: hCox-1 (Homo sapiens, UniProt P23219); construct: A 2.0 kb fragment containing the coding region of either human or murine COX-1 or human or murine COX-2; assay: Evaluation of COX-1 activity in vitro (recombinant enzyme, PGE2 ELISA)
Sequence (P23219 24-599): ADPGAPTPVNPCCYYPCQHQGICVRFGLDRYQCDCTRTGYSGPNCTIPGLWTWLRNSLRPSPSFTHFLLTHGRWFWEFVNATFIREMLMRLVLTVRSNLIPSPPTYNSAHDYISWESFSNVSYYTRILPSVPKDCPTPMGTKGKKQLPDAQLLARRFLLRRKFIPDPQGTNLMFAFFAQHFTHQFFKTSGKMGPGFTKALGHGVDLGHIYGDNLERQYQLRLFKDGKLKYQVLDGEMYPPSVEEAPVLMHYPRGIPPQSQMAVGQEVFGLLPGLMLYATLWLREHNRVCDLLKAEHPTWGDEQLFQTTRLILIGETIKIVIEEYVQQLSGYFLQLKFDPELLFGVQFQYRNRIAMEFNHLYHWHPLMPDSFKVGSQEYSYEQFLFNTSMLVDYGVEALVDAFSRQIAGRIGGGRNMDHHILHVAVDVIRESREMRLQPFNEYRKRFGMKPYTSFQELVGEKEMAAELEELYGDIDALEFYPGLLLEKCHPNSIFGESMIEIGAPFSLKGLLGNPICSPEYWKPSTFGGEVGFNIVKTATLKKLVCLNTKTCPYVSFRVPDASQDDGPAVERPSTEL
recorded-endpoint: IC50 (nM)

compound	measured
COc1ccc(-c2cc(C(F)F)nn2-c2ccc(Cl)cc2)cc1F [Compound 28]	643
COc1ccc(-n2nc(CCC(=O)N(C)O)cc2-c2ccc(Cl)cc2)cc1 [Compound 20]	27
COC(=O)c1nn(-c2ccc(OC)cc2)c2c1CCc1cc(OC)ccc1-2 [Compound 18]	442
COc1ccc2c(c1)CSc1c(C(F)(F)F)nn(-c3ccc(Cl)cc3)c1-2 [Compound 27]	141

1 = FC(F)(F)c1cc(-c2ccc(I)cc2)n(-c2ccccc2)n1 [Compound 15]
2 = FC(F)(F)c1cc(-c2cccc(Br)c2)n(-c2ccccc2)n1 [Compound 13]
3 = COC(=O)c1cc(-c2ccc(Cl)cc2)n(-c2ccc(OC)cc2)n1 [Compound 3]
query: Arrange by IC50, high to low. To answer, write out the labels according to the requested order.
result: 2, 1, 3
(2: 3300 nM, 1: 650 nM, 3: 284 nM)

====

target: hCox-1 (Homo sapiens, UniProt P23219); construct: A 2.0 kb fragment containing the coding region of either human or murine COX-1 or human or murine COX-2; assay: Evaluation of COX-1 activity in vitro (recombinant enzyme, PGE2 ELISA)
pIC50: −log10 of the molar value.
recorded-endpoint: pIC50

Observe how each entry below is paired with its result.
COc1ccc(-n2nc(CO[N+](=O)[O-])cc2-c2ccc(Cl)cc2)cc1 6.62
COc1ccc(-n2nc(C(=O)Nc3ccc(N=[N+]=[N-])cc3)cc2-c2ccc(Cl)cc2)cc1 7.92
Cc1ccc(-c2cc(C(F)(F)F)nn2-c2ccc(C(F)(F)F)cc2)cc1 6.97
COC(=O)c1ccc(-n2nc(C(F)(F)F)cc2-c2ccc(C)cc2)cc1 6.51
COc1ccc(-n2nc(C(=O)O)cc2-c2ccc(Cl)cc2)cc1 4.25

a = O=[N+]([O-])c1ccc(-n2nc(C(F)(F)F)cc2-c2ccc(Cl)cc2)cc1
b = FC(F)(F)c1cc(-c2ccc(Cl)cc2)n(-c2ccccc2)n1
query: Determine, for a and b , which has the greater value of pIC50. Answer = label.
result: b
(b: 6.91, a: 6.09)

a = O=[N+]([O-])c1ccc(-n2nc(C(F)F)cc2-c2ccc(Cl)cc2)cc1
b = COc1ccc(-c2cc(C(F)(F)F)nn2-c2ccc(C)cc2)cc1C
c = FC(F)(F)c1cc(-c2ccccc2)n(-c2ccc(Cl)cc2)n1
query: Could you please sort these 3 entries by pIC50 from high to low? Put the labels in the requested order and write them down.
result: c, b, a

====

biological target: hCox-1 (Homo sapiens); construct: A 2.0 kb fragment containing the coding region of either human or murine COX-1 or human or murine COX-2; experiment: Evaluation of COX-1 activity in vitro (recombinant enzyme, PGE2 ELISA)
recorded-endpoint: IC50 (nM)

P = FC(F)(F)c1cc(-c2ccc(Br)cc2)n(-c2ccccc2)n1
Q = COc1ccc(-n2nc(C(F)F)cc2-c2ccc(SC)cc2)cc1
R = O=[N+]([O-])c1ccc(-c2cc(C(F)F)nn2-c2ccc(F)cc2)cc1
query: Quick favor: sort the molecules up above by IC50, largest first. The reply should contain the labels ordered as requested.
result: R, P, Q
